assay.target: Thromboxane A2 receptor (Homo sapiens, UniProt P21731)
Sequence (P21731 whole entry): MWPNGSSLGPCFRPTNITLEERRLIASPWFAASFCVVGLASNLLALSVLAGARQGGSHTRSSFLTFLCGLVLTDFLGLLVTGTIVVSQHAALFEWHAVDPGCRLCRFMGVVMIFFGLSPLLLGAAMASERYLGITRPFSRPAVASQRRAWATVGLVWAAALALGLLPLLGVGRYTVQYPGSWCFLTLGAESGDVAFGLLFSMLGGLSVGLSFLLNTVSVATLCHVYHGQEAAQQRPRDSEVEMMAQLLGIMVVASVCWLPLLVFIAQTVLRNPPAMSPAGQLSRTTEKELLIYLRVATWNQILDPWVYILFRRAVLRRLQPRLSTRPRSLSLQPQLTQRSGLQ
endpoint: Ki (nM)
Kindly provide the numeric value in nM only, without the unit symbol.

Query block: What Ki value was documented for this molecule, O=C(O)C1CC1c1ccccc1-c1csc(-c2ccccc2OCc2ccccc2)c1 (stereo unspecified) ?
Result block: 400

---

Prostaglandin E2 receptor EP1 subtype (Homo sapiens): recorded Ki for assorted molecules

These recorded examples may help you get a feel for the data.
molecule: O=C(O)CCc1ccccc1-c1cccc(-c2ccccc2OCc2c(Cl)cccc2Cl)c1
endpoint.result: 1.1 µM
//
molecule: O=C(O)CCc1ccccc1-c1cccc(-c2ccccc2OCc2ccccc2)c1
endpoint.result: 8.3 µM

Query block: What Ki value was documented for this molecule, CC(CC(=O)O)c1ccccc1-c1csc(-c2ccccc2OCc2ccccc2)c1 (stereo not drawn) ?
Result block: 35 µM

---

assay.target: UniProt P34995
Sequence (P34995 whole entry): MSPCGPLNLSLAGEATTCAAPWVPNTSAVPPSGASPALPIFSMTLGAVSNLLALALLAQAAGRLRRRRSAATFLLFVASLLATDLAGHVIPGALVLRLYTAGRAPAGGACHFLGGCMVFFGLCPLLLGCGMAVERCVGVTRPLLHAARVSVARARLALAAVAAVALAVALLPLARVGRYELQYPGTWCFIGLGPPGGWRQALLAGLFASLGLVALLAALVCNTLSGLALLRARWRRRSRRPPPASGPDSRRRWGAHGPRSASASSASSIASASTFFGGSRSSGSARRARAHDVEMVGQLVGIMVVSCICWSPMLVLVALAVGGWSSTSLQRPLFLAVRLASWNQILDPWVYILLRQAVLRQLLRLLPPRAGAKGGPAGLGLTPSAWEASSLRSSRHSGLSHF
endpoint: log10 of Ki (log10 of the value in µM)
Note the log scale: values are log10 of Ki expressed in µM.

These recorded examples may help you get a feel for the data.
molecule: O=C(O)CCCc1ccccc1-c1cccc(-c2ccccc2OCc2ccccc2)c1
endpoint.result: 1.08

molecule: O=C(O)C1CC1c1ccccc1-c1csc(-c2ccccc2OCc2ccccc2)c1 (stereo not given)
endpoint.result: 1.68

molecule: Cc1cccc(/C=C/Cc2ccccc2/C=C/C(=O)O)c1OCc1ccccc1
endpoint.result: 1.08

molecule: O=C(O)Cc1ccccc1-c1cccc(-c2ccccc2OCc2ccccc2)c1
endpoint.result: 0.97

molecule: O=C(O)CCc1ccccc1-c1cccc(-c2ccccc2)c1
endpoint.result: 1.53

Query block: What log10 of Ki value was documented for this molecule, CC(Cc1ccccc1-c1cccc(-c2ccccc2OCc2ccccc2)c1)C(=O)O (stereo not given) ?
Result block: 0.92

Query block: Same for O=C(CCc1ccccc1-c1cccc(-c2ccccc2OCc2ccccc2)c1)NS(=O)(=O)c1cccs1
Result block: 0.41

Query block: Same for CC(Cc1ccccc1-c1csc(-c2ccccc2OCc2ccccc2)c1)C(=O)O (stereo not given)
Result block: 1.11

Query block: Same for O=C(O)/C=C/c1ccccc1-c1cccc(-c2ccccc2OCc2ccccc2)c1
Result block: 1.86
